Consider the following molecules; for each one, report its ED50.
test system: secretion of hydrochloric acid in the stomach; test: Lumen-perfused rat stomach in situ (histamine-induced hypersecretion); assay type: in vivo; settings: histamine 35 mcg/kg/min, intraduodenal, 3 hours, read-out: ED50 titratable acid output
Express it in µmol/kg; write the number only.

Form field: reported ED50 of CN/C(=N/CCSCc1nc[nH]c1C)NC#N [Cimetidine, reference compound]
11.1

Form field: reported ED50 of CN(C)c1ccccc1CSc1nccn1-c1ccccc1
19.9

Form field: reported ED50 of CN(C)c1ccccc1CSc1nccn1C
40.9

Form field: reported ED50 of COc1ccc2[nH]c([S+]([O-])Cc3ncc(C)c(OC)c3C)nc2c1 (centres unmarked) [Omeprazole, reference compound]
2.3

Form field: reported ED50 of CN(C)c1ccccc1CSc1nccn1-c1cccc(F)c1
26.7

---

experiment: Toxicity after single administration (acute toxicity, oral); settings: mouse, in vivo, mice, p.o., lethality 7 days after treatment, Probits method, read-out: Acute Toxicity (DL50 approx. mg/kg p.o.)
Counter-ions that a name gives are not always drawn.
Measured endpoint: LD50 at 168 h

Form field: reported LD50 at 168 h of [O-][S+](Cc1ccc2ccccc2n1)c1nc2cccnc2[nH]1 (stereo not drawn) [LI]
~750 mg/kg

Form field: reported LD50 at 168 h of CN(C)c1ccccc1CSc1nccn1-c1cccc(F)c1 [XIX]
~1000 mg/kg

Form field: reported LD50 at 168 h of c1ccc(-n2ccnc2SCc2nc3ccccc3[nH]2)cc1 [XXII]
~1000 mg/kg

Form field: reported LD50 at 168 h of Cn1ccnc1SCc1nc2cc(C(=O)c3ccccc3)ccc2[nH]1 [X]
~1400 mg/kg

Form field: reported LD50 at 168 h of Fc1cccc(-n2ccnc2SCc2nc3ccccc3[nH]2)c1 [XXI]
~900 mg/kg

Form field: reported LD50 at 168 h of CN(C)c1ccccc1CSc1nccn1C [XI]
~450 mg/kg

Form field: reported LD50 at 168 h of COc1ccc(-n2ccnc2SCc2ccccc2N(C)C)cc1 [XXIX]
> 2000 mg/kg

Form field: reported LD50 at 168 h of COc1ccc2[nH]c([S+]([O-])Cc3ncc(C)c(OC)c3C)nc2c1 (stereo not drawn) [Omeprazole HCL, reference compound]
~1400 mg/kg

Form field: reported LD50 at 168 h of Fc1ccc(-n2ccnc2SCc2nc3ccccc3[nH]2)cc1 [XXIV]
~2000 mg/kg
